- PROTOCOL DETAILS: physchem
- CONDITION INFO: pH 7.4 buffer
QUANTITY NAME: solubility thermodynamic (µM)

>>> value("O=C(O)c1cc2cc(F)ccc2n1Cc1ccc(Cl)c(Cl)c1")
209
>>> value("CNC(=O)[C@@H](NC(=O)[C@H](CC(C)C)[C@H](Sc1ccc(OC)c(OC)c1)C(=O)NO)C(C)(C)C")
1290
>>> value("CC1(COc2ccc3c(c2)ncn3-c2ccc3cccc(N4CCC(N)CC4)c3n2)COC1 [CRENOLANIB]")
5.1
>>> value("CCOC(=O)c1ccc(OCCC2(C#N)CCN(c3ccc(C)nn3)CC2)cc1")
58.9
>>> value("CCN(C(=O)NCc1cccc(C)c1)C1CCN(CCC(c2ccccc2)c2ccccc2)CC1")
70.8
>>> value("Cc1nn(C2CCN(C)CC2)cc1-c1cnc(N)c(-c2nc3ccccc3o2)c1")
21.4
>>> value("Cc1cc(F)ccc1CCC1CCN(S(=O)(=O)CC2(N(O)C=O)CCOCC2)CC1")
13.8
>>> value("NC1=NN(c2cccc(C(F)(F)F)c2)CC1 [BW-755C]")
1450
>>> value("Cc1ncc2n1-c1ccc(Cl)cc1C(c1ccccc1F)=NC2 [MIDAZOLAM]")
72.4
>>> value("COc1cc2c(Nc3ncc(CC(=O)Nc4cccc(F)c4)s3)ncnc2cc1OCCCN1CCN(C)CC1")
1.8
>>> value("COc1ccc2c(Oc3ccc(CC(=O)Nc4cnn(C)c4C)c(OC)c3)ccnc2c1")
10.7
>>> value("COc1ccc2c(Oc3ccc(CC(=O)Nc4cn(C)nc4C)c(OC)c3)ccnc2c1")
10.7
>>> value("COc1cc(C(=O)NS(=O)(=O)c2ccccc2)ccc1Cn1ncc2ccc(NC(=O)CC3CCCC3)cc21")
251
>>> value("Cc1cc(C)cc(-c2[nH]c3sc(C(C)(C)C(=O)N4C5CCC4CC5)cc3c2CCN2CCC(CNC(=O)N3CCOCC3)CC2)c1")
112
>>> value("Cc1ncc(-c2ccnc(Nc3ccc(N(C)C)cc3)n2)n1C(C)C")
100
>>> value("CCN1CCC[C@@H](C(=O)N2CCN(C(=O)Nc3ccc(Cl)c(Cl)c3)CC2)C1")
1050
>>> value("CC(C)c1nc2ccc(-c3ccc(F)cc3)cc2c(=O)n1C[C@H]1CCCN(C(C)C)C1")
537
>>> value("c1ccc2oc(-c3cncc(-c4cnn(C5CCNCC5)c4)c3)nc2c1")
87.1
>>> value("Cc1cccc(C[C@H](NC(=O)c2cc(C(C)(C)C)nn2C)C(=O)NCC#N)c1")
63.1
>>> value("Clc1n[nH]c2cccc(Nc3ccnc(Nc4cc(N5CCOCC5)cc(N5CCOCC5)c4)n3)c12")
5.1
>>> value("Cc1ccccc1/N=N/c1ccc(NC(=O)c2ccnn2C)c(C)c1")
3.2

----------
- PROTOCOL DETAILS: physchem
- CONDITION INFO: pH 7.4 buffer
QUANTITY NAME: log10(solubility thermodynamic) (log10 of the value in µM)

>>> value("COc1ncc(-c2cccc3c2C[C@H](NC(=O)c2ccc(COCC(F)(F)F)nc2)CO3)cn1")
2.20
>>> value("C[C@@H]1CN(C(=O)OC(C)(C)C)CCN1c1ncc(OCC2CCN(S(C)(=O)=O)CC2)cn1")
0.70
>>> value("O=C(c1ccc(F)cc1)C1CCN(C(=O)c2cccc(OC(F)(F)F)c2)CC1")
1.04
>>> value("CCOC(=O)N1CCN(C(=O)[C@H](Cc2cccc(C(=N)N)c2)NS(=O)(=O)c2c(C(C)C)cc(C(C)C)cc2C(C)C)CC1")
2.84
>>> value("Cc1ccc(NC(=O)c2ccc(C#N)cc2)cc1-n1cnc2ccc(N3CCN(C)CC3)cc2c1=O")
1.51
>>> value("O=C(Nc1ccc(Oc2cccnc2)nc1)c1nnc(Nc2ccccc2F)o1")
1.89

----------
- PROTOCOL DETAILS: physchem
- CONDITION INFO: pH 7.4 buffer
Consider the following partition of reported solubility thermodynamic into named classes: low = under 9 µM, medium = from 9 µM up to 100 µM, high = 100 µM and over

>>> class("CN(C)S(=O)(=O)NC(=O)CCCc1c(-c2ccc(F)cc2)[nH]c2ccc(C#N)cc12")
"low"
>>> class("O=C(c1ccccc1)C1CCN(C(=O)c2ccco2)CC1")
"high"
>>> class("CN1CCC(c2cc(N3CCOCC3)nc(-c3cccc4[nH]ccc34)n2)(S(C)(=O)=O)CC1")
"medium"
>>> class("Cc1cc(C)c(N2C(=O)CC(Sc3ccccc3N)C2=O)c(C)c1 (centres undefined)")
"medium"
>>> class("CC1(C)Oc2ncnc(N)c2N=C1c1ccc(C23CCC(C(=O)O)(CC2)CC3)cc1")
"low"
>>> class("COc1ccc(/C=C\\c2cc(OC)c(OC)c(OC)c2)cc1NC(=O)[C@@H](N)CO [OMBRABULIN]")
"high"
>>> class("O=C(CO)N1CCC[C@H]1COc1cccc2ncnc(Nc3ccc(OCc4ccccn4)c(Cl)c3)c12")
"low"
>>> class("COc1cc(N2CCN(C(C)=O)CC2)ccc1Nc1ncc(Cl)c(-c2cnc3ccc(F)cn23)n1")
"low"
>>> class("O=C1CN=C(c2ccccc2Cl)c2cc([N+](=O)[O-])ccc2N1 [CLONAZEPAM]")
"high"
>>> class("COc1cc2ncnc(Nc3cc(NC(=O)c4ccccc4)ccc3Cl)c2cc1OC")
"medium"
>>> class("Cc1ccc(CO)cc1N(C)c1ccnc(Nc2cc(N3CCOCC3)cc(S(C)(=O)=O)c2)n1")
"medium"
>>> class("CC#CC(=O)Nc1ccc2ncnc(Nc3cccc(Br)c3)c2c1")
"low"
>>> class("O=C1CCC(N2C(=O)c3ccccc3C2=O)C(=O)N1 (centres undefined) [THALIDOMIDE]")
"high"
>>> class("N=C(N)Nc1nc(-c2cccc(O)c2)cs1")
"medium"
>>> class("Nc1ncnc2c1C(=O)N(c1ccc([C@H]3CC[C@H](CC(=O)O)CC3)cc1)CCO2 [PF-04620110]")
"high"
>>> class("Cc1c(-c2ccccc2F)c(=O)n(C[C@H](N)c2ccccc2)c(=O)n1Cc1c(F)cccc1F")
"high"
>>> class("Cc1ncc(-c2ccnc(Nc3ccc(S(N)(=O)=O)cc3)n2)n1C")
"medium"
>>> class("O=c1[nH]c2c(O)ccc([C@@H](O)CNCCc3cccc(CNCCc4ccccc4Cl)c3)c2s1")
"high"
>>> class("CN(c1ccc(Cl)c(CO)c1)c1ccnc(Nc2cc(N3CCOCC3)cc(N3CCOCC3)c2)n1")
"low"

----------
# maps each entry to its solubility thermodynamic
- PROTOCOL DETAILS: physchem
- CONDITION INFO: pH 7.4 buffer
QUANTITY NAME: solubility thermodynamic (µM)

>>> value("O=C(NCCSCc1ccccc1)c1ccccc1")
72.4
>>> value("Oc1ccc(-c2nc3ccccc3s2)cc1")
7.9
>>> value("CCN1CCN(Cc2ccc(-c3cc4c(N[C@H](C)c5ccccc5)ncnc4[nH]3)cc2)CC1 [AEE-788]")
58.9

----------
- PROTOCOL DETAILS: in vitro
- CONDITION INFO: hepatocytes
Decide by hepatocyte CLint: equal to or exceeding 20 µL/min/1e6 cells means true, less means false.

>>> class("C[C@H](CO)Nc1nc(SCc2ccccc2)nc2[nH]c(=O)sc12")
"false"
>>> class("C[C@@H](C(=O)NCCN1CCCC1)c1ccc(OS(=O)(=O)C(F)(F)F)cc1")
"false"
>>> class("CC(C)(C)NC[C@H](O)COc1nsnc1N1CCOCC1")
"true"
>>> class("Cc1ccc(S(=O)(=O)Nc2c(C(=O)NC(C)C)c(C)nn2-c2ccccc2)cc1")
"true"
>>> class("CCNC(=O)C[C@H]1N=C(c2ccc(Cl)cc2)c2cc(OC)ccc2-n2c(C)nnc21")
"false"
>>> class("O=C(NCC12CC3CC(CC(C3)C1)C2)c1cc(-n2ncc(=O)[nH]c2=O)ccc1Cl")
"false"
>>> class("O=C1NC(=O)/C(=C/c2ccc3c(c2)OC(F)(F)O3)S1")
"false"
>>> class("O=C(O)COc1ccc(Cl)cc1CN1CCN(S(=O)(=O)c2ccc(F)cc2)CC1")
"false"
>>> class("Cc1c(Sc2ccc(Cl)cc2)c2c(NS(C)(=O)=O)cccc2n1CC(=O)O")
"false"
>>> class("COc1cccc2sc(NC(=O)c3ccccc3)nc12")
"false"
>>> class("Cc1nn(-c2ccccc2)c(NS(=O)(=O)c2cccc(CN3CCOCC3)c2)c1C(=O)N[C@@H](C)C(C)(C)C")
"false"
>>> class("Cc1nn(-c2ccccc2)c(NC(=O)NS(=O)(=O)c2ccc(Cl)cc2)c1C#N")
"true"
>>> class("COCC(C)n1nc(C)c(C(=O)N[C@@H](C)C(C)(C)C)c1NS(=O)(=O)c1ccc(C)cc1 (stereo partly drawn)")
"false"
>>> class("Oc1ncnc2c1c(-c1ccccc1)cn2-c1ccc(Br)cc1")
"true"
>>> class("C[C@H]1CN(Cc2cc(Cl)ccc2OCC(=O)O)CCN1C(=O)Cc1ccc(Cl)cc1")
"false"
>>> class("COc1nc(N)nc2c1ncn2[C@@H]1O[C@H](CO)[C@@H](O)[C@H]1O")
"false"
>>> class("COc1ccc(N(C(=O)c2ccccc2)C(C(=O)NC[C@@H](C)O)c2ccccc2F)c(OC)c1 (stereo partly drawn)")
"true"
>>> class("CCOc1ncc(C)c2c1[C@H](c1ccc(C#N)cc1OC)C(C(N)=O)=C(C)N2")
"true"
>>> class("O=C(Nc1ncc(F)s1)C(CC1CCOCC1)c1ccc(S(=O)(=O)C2CC2)cc1 (stereo not drawn)")
"false"
>>> class("O=C(C1CCN(c2nnc(-n3cccc3)s2)CC1)N1CCN(Cc2ccc3c(c2)OCO3)CC1")
"true"
>>> class("COc1cc(O)c(C(CC(=O)N2CC(C)CC(C)C2)c2ccc3c(c2)OCO3)c(OC)c1 (stereo not drawn)")
"true"
>>> class("N#Cc1ccc(NC(=O)Nc2ccccc2Br)c2nn[nH]c12")
"true"
